Field: GLC. Provide a value for each of the molecules that follow.
# Organism: Rattus norvegicus
# PROTOCOL SUMMARY: Open TG-GATES - Regimen: Daily Repeat
# Type: toxicity, organism-based, Sprague-Dawley
# Parameters: regimen Daily Repeat, gender Male, age 6 weeks
# STATED CONDITIONS: in vivo, po, 0 mg/kg, […], tissue Plasma, route gavage, dose level Control, time 7 day
One number for each entry, in mg/dL.

For orientation, consider the following solved cases.
1. Nc1ccc(Cc2ccc(N)cc2)cc1 :: 177.6
2. COc1ccc([C@@H]2Sc3ccccc3N(CCN(C)C)C(=O)[C@@H]2OC(C)=O)cc1 :: 187.8
3. CN(C/C=C/C#CC(C)(C)C)Cc1cccc2ccccc12 :: 201.8
4. O=c1ccc2ccccc2o1 :: 189.8
5. NS(=O)(=O)c1cc(C(=O)O)c(NCc2ccco2)cc1Cl [FUROSEMIDE] :: 179.4

Shifting focus to the molecule that follows.
Q: Fill blank: measured GLC of the molecule O=C(O)c1ccccc1Nc1ccccc1 is ____.
Result: 190.4

Origin of measurements: ChEMBL document CHEMBL3885861
